Each item that follows carries a reported EC50.
- assay-system: T1, human membrane IgA overexpressed on Ramos cells (human)
- T1 construct: its MIGIS-α segment is the short form; also called IgA^+ Ramos; human IgA^+ RAMOS cells
- T1 sequence (heavy, as listed by the source): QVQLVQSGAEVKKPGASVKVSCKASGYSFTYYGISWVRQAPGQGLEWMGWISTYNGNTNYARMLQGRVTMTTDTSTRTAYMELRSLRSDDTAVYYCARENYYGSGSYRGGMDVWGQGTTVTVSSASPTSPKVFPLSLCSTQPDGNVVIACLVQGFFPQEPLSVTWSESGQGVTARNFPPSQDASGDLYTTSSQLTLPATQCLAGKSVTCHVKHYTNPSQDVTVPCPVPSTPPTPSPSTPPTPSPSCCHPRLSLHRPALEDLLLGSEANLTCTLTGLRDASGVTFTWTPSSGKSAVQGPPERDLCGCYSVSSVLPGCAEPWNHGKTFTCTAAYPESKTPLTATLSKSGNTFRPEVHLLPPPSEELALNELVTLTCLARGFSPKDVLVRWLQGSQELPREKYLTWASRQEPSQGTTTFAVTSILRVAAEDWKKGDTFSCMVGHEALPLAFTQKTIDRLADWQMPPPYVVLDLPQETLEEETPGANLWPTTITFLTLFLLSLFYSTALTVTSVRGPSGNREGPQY
- assay-notes: flow cytometry on IgA+ Ramos cells
quantity-kind: EC50 (nM)

>  <binder>
GBT-IgA-0020 (15E7) (antibody, V domains shown) VH: EVQLLESGGGLVQPGGSLRLSCAASGFTFSSYAMSWVRQVPGKGLEWVSAITGSGSGTYYADPVKGRFTISRDNSKNTLYLQMNSLRAEDTAVYHCAKERSGSSSDYWGQGTLVTVSS VL: EIVLTQSPATLSLSPGERATLSCRASQTVSSYLAWYQQKPGQAPRLLIYEASNRATGIPPRFSGSGSGTDFTLTISSLEPEDFAVYYCQQRNNWPITFGQGTRLESKR

>  <quantity-kind>
EC50

>  <test-value>
64.5

$$$$
>  <binder>
GBT-IgA-0034 (ET10) (antibody, V domains shown, Heavy constant region of the tested format is not tied to this name; also called E10) VH: EVQLLESGGGLVQPGGSLRLSCAASGFTFSSYAMSWVRQVPGKGLEWVSSITGSGGGTYYADPVKGRFTISRDNSKNTLYLQMNSLRAEDTAVYHCAKERSGSSSDYWGQGTLVTVSS VL: EIVLTQSPATLSLSPGERATLSCRASQTVRSHLAWYQQKPGQAPRLLIYEASNRATGIPPRFSGSGSGTDFTLTISSLEPEDFAVYYCQQRNNWPITFGQGTRLESKR

>  <quantity-kind>
EC50

>  <test-value>
27

$$$$
>  <binder>
GBT-IgA-0035 (ET17) (antibody, V domains shown, Heavy constant region of the tested format is not tied to this name; also called E17) VH: EVQLLESGGGLVQPGGSLRLSCAASGFTFSRYAMSWVRQVPGKGLEWVSAITGSGSGTYYADPVKGRFTISRDNSKNTLYLQMNSLRAEDTAVYHCAKERSGSSSDYWGQGTLVTVSS VL: EIVLTQSPATLSLSPGERATLSCRASQTVGSHLAWYQQKPGQAPRLLIYEASNRATGIPPRFSGSGSGTDFTLTISSLEPEDFAVYYCQQRNNWPITFGQGTRLESKR

>  <quantity-kind>
EC50

>  <test-value>
11.9

$$$$
>  <binder>
GBT-IgA-0036 (ET18) (antibody, V domains shown, Heavy constant region of the tested format is not tied to this name; also called E18) VH: EVQLLESGGGLVQPGGSLRLSCAASGFTFSRYAMSWVRQVPGKGLEWVSAITGSGSGTYYADPVKGRFTISRDNSKNTLYLQMNSLRAEDTAVYHCAKERSGSSSDYWGQGTLVTVSS VL: EIVLTQSPATLSLSPGERATLSCRASQTVSSHLAWYQQKPGQAPRLLIYEASNRATGIPPRFSGSGSGTDFTLTISSLEPEDFAVYYCQQRNNWPITFGQGTRLESKR

>  <quantity-kind>
EC50

>  <test-value>
10.8

$$$$
